Each entry below lists one item and its recorded kon value.
system: T1, SARS-CoV-2 S1 (aa16-685) (Wuhan) (SARS-CoV-2 Wuhan, UniProt P0DTC2 16-685)
T1 construct: NRC; FLAG, 6xHis tags
test_protocol: SPR, antigen on chip
Please respond with the number in M⁻¹ s⁻¹ and leave the unit unwritten.

NRCoV2-MRed03 VHH (VHH) VHH: EVQLVESGGGLVQPGGSLRLSCAAIGFTLDYYAIGWFRQAPGKEREGVSCISSSDGSTYYADSVKGRFTISRDNAKNTVYLQMNSLKPEDTAVYYCATDAFATCDSWYAQIAQYDFRGQGTQVTVSS
276000
NRCoV2-MRed07 VHH (VHH) VHH: EVQLVESGGGLVQPGGSLTLSCAASGSIGPFNTMGWYRQAPGNQREPAAIITRGGVTNYADSVKGRFTISRDNAKNAVYLQMDSLKPDDTAVYYCYANYGWAIPYWGNGTQVTVSS
1.13e+06
NRCoV2-MRed04 VHH (VHH) VHH: EVQLVESGGGLVQPGRSLRLSCAASGNSFSISTMGWFRQAPGKERELVASIWSDTTTSYADSVKGRFTISTDNTRTKVYLQMSSLNPEDTAVYYCAADRGFVVRGQYDYWGQGTQVTVSS
1.09e+06

# context switch: different binder, same kon
Problem: Request the reported kon associated with NRCoV2-MRed06 VHH (VHH) VHH: EVQLVESGGGLVQAGGSLRLSCAASGFTLAYYAIGWFRQAPGKEREGVSCISSSDGSAHYADSVKGRFTISRDNAKNTVSLQMNSLKPEDTAVYYCATDSFSSCSDYESGMDFWGKGTQVTVSS
Result: 371000
